So I've got a bunch of molecules here, and I need their IC50 values.
tested on: LoVo; assay: Inhibition of human adenocarcinoma cell line LoVo proliferation; type: functional, cell-based

Sample records with IC50:
O=C1CCNC(=O)c2[nH]c(Br)cc21; > 10 µM
NC(=O)c1cc(Br)c(Br)[nH]1; > 10 µM
O=C1CCNC(=O)c2[nH]ccc21 [ALDISIN]; > 10 µM
Nc1ncc(/C=C/CNC(=O)c2cc(Br)c(Br)[nH]2)[nH]1 [OROIDIN]; > 10 µM
NC1=N/C(=C2/CCNC(=O)c3[nH]ccc32)C(=O)N1 [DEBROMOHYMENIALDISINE]; > 10 µM
NC1=N/C(=C2\CCNC(=O)c3[nH]c(Br)cc32)C(=O)N1; 0.586 µM

Would you mind giving IC50 for every molecule in the list below?
1. NC1=NC(=O)/C(=C2\CCNC(=O)c3[nH]c(Br)cc32)N1 [HYMENIALDISINE]
2. CSCC[C@H](NC(=O)c1ccc(NC[C@@H](N)CS)cc1-c1ccccc1)C(=O)O
3. Nc1nc(C2CCNC(=O)c3[nH]c(Br)c(Br)c32)c[nH]1 (centres undefined)

**A:**
1. 0.71 µM
2. 0.05 µM
3. > 10 µM

====

molecular target: Serine/threonine-protein kinase RAF and Dual specificity mitogen-activated protein kinase kinase 1 (Raf/MEK) (Homo sapiens, UniProt P04049+Q02750); experiment: Inhibition of kinase activity of Raf/MEK/ERK kinase cascade in ELISA; assay type: protein assay
So I've got a bunch of compounds here, and I need their IC50 values.
One number for each entry, in nM.

Nc1nc(C2CCNC(=O)c3[nH]c(Br)c(Br)c32)c[nH]1 (stereo not given); 1288

# context switch: different compound, same IC50
**Q:** Fill in: IC50 of NC1=N/C(=C2/CCNC(=O)c3[nH]ccc32)C(=O)N1 is ___
**A:** 881

====

system: Caco-2; assay: Inhibition of human adenocarcinoma cell line Caco-2 proliferation; assay type: functional, cell-based
pIC50: −log10 of the molar value.
propertyLabel: pIC50

Sample records with pIC50:
NC1=N/C(=C2\CCNC(=O)c3[nH]c(Br)cc32)C(=O)N1; < 5.41
NC1=N/C(=C2/CCNC(=O)c3[nH]ccc32)C(=O)N1 [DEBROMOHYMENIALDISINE]; < 5.00
O=C1CCNC(=O)c2[nH]c(Br)cc21; < 5.00
O=C1CCNC(=O)c2[nH]ccc21 [ALDISIN]; < 5.00
CSCC[C@H](NC(=O)c1ccc(NC[C@@H](N)CS)cc1-c1ccccc1)C(=O)O; < 5.00

Would you mind giving pIC50 for every compound in the list below?
1. Nc1ncc(/C=C/CNC(=O)c2cc(Br)c(Br)[nH]2)[nH]1 [OROIDIN]
2. NC1=NC(=O)/C(=C2\CCNC(=O)c3[nH]c(Br)cc32)N1 [HYMENIALDISINE]
3. Nc1nc(C2CCNC(=O)c3[nH]c(Br)c(Br)c32)c[nH]1 (centres undefined)
4. NC(=O)c1cc(Br)c(Br)[nH]1

**A:**
1. < 5.00
2. < 5.11
3. < 5.00
4. < 5.00

====

target: Serine/threonine-protein kinase RAF and Dual specificity mitogen-activated protein kinase kinase 1 (Raf/MEK) (Homo sapiens, UniProt P04049+Q02750); assay: Inhibition of kinase activity of Raf/MEK/ERK kinase cascade in ELISA; format: protein assay
So I've got a bunch of compounds here, and I need their IC50 values.

Sample records with IC50:
O=C1CCNC(=O)c2[nH]ccc21 [ALDISIN]; > 2.5 µM
NC(=O)c1cc(Br)c(Br)[nH]1; > 2.5 µM

**Q:** Fill in: IC50 of Nc1ncc(/C=C/CNC(=O)c2cc(Br)c(Br)[nH]2)[nH]1 [OROIDIN] is ___
**A:** > 2.5 µM
